Test: chemical genetic growth profiling, strain panel (AID 1159580);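 also: tested at 20 µM; growth read once vehicle control cultures reached saturation at 30 °C; 1 = growth at the plate median or of vehicle wells; lower values mean less growth of the strain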
Settings: S. cerevisiae deletion strains, growth OD, locus YMR129W, active compounds read low
Among all 5,500 compounds or so, about 2,000 (36%) were called active. Another 18% or so got no clear call; they are omitted. The list shows a part of the results.

compound | normalized growth
CNC(=O)Oc1ccccc1OC(C)C | 0.995
CC[C@H]1OC(=O)[C@H](C)[C@@H](O[C@H]2C[C@@](C)(OC)[C@@H](O)[C@H](C)O2)[C@H](C)[C@@H](O[C@@H]2O[C@H](C)C[C@H](N(C)C)[C@H]2O)[C@](C)(O)C[C@@H](C)/C(=N/OCOCCOC)[C@H](C)[C@@H](O)[C@]1(C)O | 1.02
C[C@H]1C(=O)CCC2[C@]3(C)CC[C@@]4(C)C5CC(C)(C)CC[C@]5(C)CC[C@]4(C)C3CC[C@@]21C (stereo not given in full) | 0.996
COc1cc(OC)c2c(OC)c(-c3ccc4c(c3)OCO4)c(=O)oc2c1 | 0.989
COc1ccc(NS(=O)(=O)c2ccc(N)cc2)nn1 | 0.989
NC(Cc1ccc(Cl)cc1)C(=O)O (stereo not given) | 0.995
Cn1c(=O)[nH]c2ncn(C)c2c1=O | 0.984
Cn1c(=O)c2c(ncn2CCO)n(C)c1=O | 1.02
CC(=O)NC1C(O)OC(COS(=O)(=O)O)C(OC2OC(C(=O)O)C(OC3OC(CO)C(OC4OC(C(=O)O)C(O)C(O)C4OS(=O)(=O)O)C(OS(=O)(=O)O)C3NS(=O)(=O)O)C(O)C2OS(=O)(=O)O)C1O (stereo not given) | 0.983
CCCC(=O)Nc1ccc(OCC(O)CNC(C)C)c(C(C)=O)c1 (stereo not given) | 1.01
COc1cc(O)c2c(c1)C(=O)c1cc(C)cc(O)c1C2=O | 0.992
CCCc1ncc(C[n+]2ccccc2C)c(N)n1 | 0.986
C=C[C@H]1CN2CC[C@H]1C[C@H]2[C@H](O)c1ccnc2ccccc12 | 1
O=C(O)CC[N+](=O)[O-] | 0.996
Oc1cc2c(cc1O)C(c1ccccc1)CNCC2 (stereo not given) | 0.984
O=C(O)c1cccnc1C(=O)O | 0.987
CC(C)CCCC(C)N (stereo not given) | 1.02
CC(NC(C)(C)C)C(=O)c1cccc(Cl)c1 (stereo not given) | 1
Cn1c(=O)c2c(ncn2C)n(C)c1=O | 0.988
Cn1cnc2c1c(=O)[nH]c(=O)n2C | 0.979
CC(=O)OC[C@@]1(O)C[C@@]23CCC4c5ccoc5CC[C@]4(C)C2CC[C@@H]1C3 (stereo not given in full) | 1.02
Cn1c(=O)[nH]c2nc[nH]c2c1=O | 1
ClC1C(Cl)C(Cl)C(Cl)C(Cl)C1Cl (stereo not given) | 0.988
CNC(=O)N(C)c1nnc(C(C)(C)C)s1 | 0.998
CC(=O)CCCCn1c(=O)c2c(ncn2C)n(C)c1=O | 1.01

###

The following molecules are shown together with reported normalized growth values.
Experiment: chemical genetic growth profiling, strain panel (AID 1159580);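 also: tested at 20 µM; growth read once vehicle control cultures reached saturation at 30 °C; 1 = growth at the plate median or of vehicle wells; lower values mean less growth of the strain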
Conditions: S. cerevisiae deletion strains, growth OD, locus YAL040C, strain CLN3, active compounds read low
About 2,000 (36%) of roughly 5,500 compounds were called active. Roughly 18% stayed inconclusive and do not appear here. The list shows a part of the results.
endpointLabel: normalized growth

molecule | result
CC(C)NP(=O)(NC(C)C)OP(=O)(NC(C)C)NC(C)C | 0.983
C=CC[C@H](N)C(=O)O | 0.997
NC(N)=NCc1cccc(I)c1 | 0.995
Oc1ccccc1O | 0.983
CN1CCN(C2=Nc3cc(Cl)ccc3Nc3ccccc32)CC1 | 1.01
Cc1ccc2c(c1)C(N1CCN(C)CC1)=Nc1cccnc1N2 | 0.99
C#CCn1c(=O)c2c(ncn2C)n(C)c1=O | 1.01
NC(Cc1ccc(Cl)cc1)C(=O)O (stereo unspecified) | 1
O=c1[nH]ccc2c(O)cccc12 | 0.999
CCCN1CCCC2Cc3[nH]ncc3CC21 (stereo unspecified) | 0.972
CC(=O)N[C@H](C(=O)O)C(C)(C)SN=O | 1.01
